Values from the NIST ThermoML archive (doi:10.1016/j.fluid.2009.01.011)

# activity coefficient per record follows
ASSAY: activity coefficient (dimensionless); of the first substance listed, at infinite dilution; xn = mol fraction of the nth substance listed
CONDITION_PARAMETERS: 348.15 K; Liquid; Chromatography; x1 = 0
Simply state the number, no unit and no words.

Here are 5 compounds together with their reported answers.
c1ccccc1 [benzene] + CCCC[N+]1(C)CCCC1.O=S(=O)([O-])C(F)(F)F ... 1.53
c1ccsc1 [thiophene] + CCCC[N+]1(C)CCCC1.O=S(=O)([O-])C(F)(F)F ... 1.11
C#CCCC [1-pentyne] + CCCC[N+]1(C)CCCC1.O=S(=O)([O-])C(F)(F)F ... 2.95
CCCCC [pentane] + CCCC[N+]1(C)CCCC1.O=S(=O)([O-])C(F)(F)F ... 28.9
Cc1ccccc1 [toluene] + CCCC[N+]1(C)CCCC1.O=S(=O)([O-])C(F)(F)F ... 2.3

Please find the next compound below.
Query C#CCCCC [1-hexyne] + CCCC[N+]1(C)CCCC1.O=S(=O)([O-])C(F)(F)F yields activity coefficient of 4.02
